Measured Ki, listed per entry.
target: human recombinant dopamine D2 receptor (Homo sapiens (Human), UniProt P14416)
Sequence (P14416 whole entry): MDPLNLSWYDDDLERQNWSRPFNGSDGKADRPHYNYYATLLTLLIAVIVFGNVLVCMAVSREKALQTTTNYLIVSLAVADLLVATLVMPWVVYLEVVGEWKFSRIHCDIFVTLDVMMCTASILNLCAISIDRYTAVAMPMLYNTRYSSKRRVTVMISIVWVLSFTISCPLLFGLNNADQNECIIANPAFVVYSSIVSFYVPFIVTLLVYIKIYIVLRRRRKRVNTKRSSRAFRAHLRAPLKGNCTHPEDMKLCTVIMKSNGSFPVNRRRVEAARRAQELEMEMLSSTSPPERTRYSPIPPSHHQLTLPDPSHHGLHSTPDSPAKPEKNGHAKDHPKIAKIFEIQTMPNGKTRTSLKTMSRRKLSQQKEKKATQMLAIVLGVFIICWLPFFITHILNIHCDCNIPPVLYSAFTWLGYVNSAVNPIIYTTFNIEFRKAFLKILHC
assay-summary: Test of binding inhibition for dopamine D2 receptor ([3H]-Methylspiperone SPA)
settings: Jump-In HEK cell membranes, 1.2 nM [3H]-Methylspiperone, 120 min at 25° C.; read-out: hD2_Ki

Answered cases to consult:
Cn1cc2c(C(=O)NN3CCC(CCN4CCc5sc(OCC(C)(F)F)nc5C4)CC3)cccc2n1	> 1800 nM
O=C(N[C@H]1CC[C@](F)(CCN2CCc3nc(OCC(F)F)sc3CC2)CC1)c1cccnc1C(F)F	1100 nM
Cc1ncccc1C(=O)N[C@H]1CC[C@H](CCN2CCc3nc(OC4CC(F)(F)C4)sc3CC2)CC1	> 1800 nM
Cc1cnc(CC(=O)N[C@H]2CC[C@H](CCN3CCc4sc(C5CC(F)(F)C5)nc4C3)CC2)o1	620 nM
Cc1nc(CC(=O)N[C@H]2CC[C@](F)(CCN3CCc4ccc(CCC(F)(F)F)nc4CC3)CC2)nn1C	1200 nM

Simply: CC(C)Oc1ccc2c(n1)CCN(CC[C@H]1CC[C@H](NC(=O)c3cnn4ccccc34)CC1)CC2 , human recombinant dopamine D2 receptor (Homo sapiens (Human), UniProt P14416), Ki = 1100 nM

====

Measured Ki, listed per entry.
target: human recombinant dopamine D3 receptor (Homo sapiens (Human), UniProt P35462)
Sequence (P35462 whole entry): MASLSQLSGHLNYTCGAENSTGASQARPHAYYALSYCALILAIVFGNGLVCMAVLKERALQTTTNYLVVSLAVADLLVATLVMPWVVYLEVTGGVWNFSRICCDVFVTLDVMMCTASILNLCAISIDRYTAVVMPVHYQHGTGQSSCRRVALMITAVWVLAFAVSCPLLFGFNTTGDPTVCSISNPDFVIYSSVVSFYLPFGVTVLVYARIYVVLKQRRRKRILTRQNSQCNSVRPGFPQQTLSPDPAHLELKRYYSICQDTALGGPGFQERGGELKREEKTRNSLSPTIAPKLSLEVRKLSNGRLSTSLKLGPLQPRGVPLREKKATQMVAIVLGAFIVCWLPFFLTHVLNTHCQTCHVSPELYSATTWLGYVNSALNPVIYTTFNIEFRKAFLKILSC
assay-summary: Test of binding inhibition for dopamine D3 receptor ([3H]-Methylspiperone SPA)
settings: Jump-In HEK cell membranes, 2 nM [3H]-Methylspiperone, 120 min at 25° C.; read-out: hD3_Ki
Description: (Experimental Conditions) Cell membranes: Jump-In HEK cell membranes expressing human recombinant dopamine D3 receptor (4 μg/well) Non-specific ligand: (final concentration) 10 μM Butaclamol [(+)-Butaclamol Hydrochloride, D033, Sigma] SPA beads solution: SPA beads [WGA PVT SPA Scintillation Beads, RPNQ0001 (500 mg), RPNQ0060 (2 g), PerkinElmer] (0.2 mg/well) Incubation time and temperature: 120 min at 25° C. […]
Number only, in nM; omit the unit.

Answered cases to consult:
Cc1cc(OCC(=O)N[C@H]2CC[C@H](CCN3CCc4nc(OCC(C)(F)F)sc4CC3)CC2)no1	0.2
Cc1nc(CC(=O)N[C@H]2CC[C@](F)(CCN3CCc4ccc(OCC(F)F)nc4CC3)CC2)no1	0.2

Continue with the molecule presented below.
Cc1nnc(CC(=O)NC23CCC(CCN4CCc5nc(OCC(F)(F)F)sc5CC4)(CC2)CC3)o1 has a reported Ki of 0.2

====

Measured log10(Ki), listed per entry.
target: human recombinant dopamine D3 receptor (Homo sapiens (Human), UniProt P35462)
assay-summary: Test of binding inhibition for dopamine D3 receptor ([3H]-Methylspiperone SPA)
settings: Jump-In HEK cell membranes, 2 nM [3H]-Methylspiperone, 120 min at 25° C.; read-out: hD3_Ki
Method: (Experimental Conditions) Cell membranes: Jump-In HEK cell membranes expressing human recombinant dopamine D3 receptor (4 μg/well) Non-specific ligand: (final concentration) 10 μM Butaclamol [(+)-Butaclamol Hydrochloride, D033, Sigma] SPA beads solution: SPA beads [WGA PVT SPA Scintillation Beads, RPNQ0001 (500 mg), RPNQ0060 (2 g), PerkinElmer] (0.2 mg/well) Incubation time and temperature: 120 min at 25° C. […]
Hello, just confirming the data are log10 of Ki with units of nM.

Answered cases to consult:
Cn1ncc(CC(=O)N[C@H]2CC[C@](F)(CCN3CCc4ccc(OCC(F)F)nc4CC3)CC2)c1F	-0.39
Cc1cnc(CC(=O)N[C@H]2CC[C@H](CCN3CCc4ccc(OC5CCC5)nc4CC3)CC2)o1	-0.19
Cc1ncc(OCC(=O)NC23CCC(CCN4CCc5nc(OCC(F)(F)F)sc5CC4)(CC2)OC3)cn1	-0.31
Cn1c(C(=O)N[C@H]2CC[C@H](CCN3CCc4ccc(CCC(F)(F)F)nc4CC3)CC2)cccc1=O	-0.66
Cc1nc(CC(=O)N[C@H]2CC[C@](F)(CCN3CCc4nc(OCC(F)(F)F)sc4CC3)CC2)nn1C	-0.64

Simply: Cc1cnc(CC(=O)N[C@H]2CC[C@](F)(CCN3CCc4ccc(OCC(F)F)nc4CC3)CC2)o1 , human recombinant dopamine D3 receptor (Homo sapiens (Human), UniProt P35462), log10(Ki) = -0.28

Simply: Cc1cc(CC(=O)N[C@H]2CC[C@H](CCN3CCc4ccc(CCC(F)(F)F)nc4CC3)CC2)on1 , human recombinant dopamine D3 receptor (Homo sapiens (Human), UniProt P35462), log10(Ki) = -0.82

Simply: Cc1cc(OCC(=O)N[C@H]2CC[C@](F)(CCN3CCc4ccc(OCC(F)F)nc4CC3)CC2)no1 , human recombinant dopamine D3 receptor (Homo sapiens (Human), UniProt P35462), log10(Ki) = -0.60

Simply: Cn1ncc(CC(=O)N[C@H]2CC[C@H](CCN3CCc4nc(OCC(C)(F)F)sc4CC3)CC2)n1 , human recombinant dopamine D3 receptor (Homo sapiens (Human), UniProt P35462), log10(Ki) = -1.37
